Documented Kd across a set of binders
target: T1, Rat Serum Albumin (rat, UniProt P02770 25-608); experiment: Albumin KD column of the PK table (repeats Table 6)
T1 construct: mature; purified protein on CM5 chips for BIAcore; also called RSA; rat SA
T1 sequence (P02770 25-608): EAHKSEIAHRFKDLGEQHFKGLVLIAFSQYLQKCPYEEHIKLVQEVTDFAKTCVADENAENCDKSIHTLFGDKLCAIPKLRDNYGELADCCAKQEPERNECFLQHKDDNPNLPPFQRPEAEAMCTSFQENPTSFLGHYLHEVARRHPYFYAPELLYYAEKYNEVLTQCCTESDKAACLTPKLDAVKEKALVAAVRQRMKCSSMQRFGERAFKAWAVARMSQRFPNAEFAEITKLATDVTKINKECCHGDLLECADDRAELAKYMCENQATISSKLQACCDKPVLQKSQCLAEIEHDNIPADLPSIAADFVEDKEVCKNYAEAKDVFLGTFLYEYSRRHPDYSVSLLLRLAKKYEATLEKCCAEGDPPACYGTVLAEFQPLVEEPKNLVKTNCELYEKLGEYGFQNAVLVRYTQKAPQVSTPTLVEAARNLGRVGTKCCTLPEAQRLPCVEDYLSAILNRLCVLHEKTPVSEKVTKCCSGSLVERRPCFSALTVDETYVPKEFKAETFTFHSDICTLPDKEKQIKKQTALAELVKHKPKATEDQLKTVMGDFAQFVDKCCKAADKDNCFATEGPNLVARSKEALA

binder	Kd / nM
DOM7h-14-10 (other, Vk dAb (AlbudAb)) VL: DIQMTQSPSSLSASVGDRVTITCRASQWIGSQLSWYQQKPGKAPKLLIMWRSSLQSGVPSRFSGSGSGTDFTLTISSLQPEDFATYYCAQGLRHPKTFGQGTKVEIKR	4
DOM7h-11-12 (other) VL: DIQMTQSPSSLSASVGDRVTITCRASRPIGTMLSWYQQKPGKAPKLLILFGSRLQSGVPSRFSGSGSGTDFTLTISSLQPEDFATYYCAQAGTHPTTFGQGTKVEIKR	200
DOM7h-14-18 (other, Vk dAb (AlbudAb)) VL: DIQMTQSPSSLSASVGDRVTITCRASQWIGSQLSWYQQKPGKAPKLLIMWRSSLQSGVPSRFSGSGSGTDFTLTISSLQPEDFATYYCAQGLMKPMTFGQGTKVEIKR	410
DOM7h-11-15 (other) VL: DIQMTQSPSSLSASVGDRVTITCRASRPIGTMLSWYQQKPGKAPKLLILAFSRLQSGVPSRFSGSGSGTDFTLTISSLQPEDFATYYCAQAGTHPTTFGQGTKVEIKR	20
DOM7h-11 (other) VL: DIQMTQSPSSLSASVGDRVTITCRASRPIGTTLSWYQQKPGKAPKLLIWFGSRLQSGVPSRFSGSGSGTDFTLTISSLQPEDFATYYCAQAGTHPTTFGQGTKVEIKR	2100
DOM7h-14-19 (other, Vk dAb (AlbudAb)) VL: DIQMTQSPSSLSASVGDRVTISCRASQWIGSQLSWYQQKPGEAPKLLIMWRSSLQSGVPSRFSGSGSGTDFTLTISSLQPEDFATYYCAQGAALPRTFGQGTKVEIKR	890
